Biological target: Renin (Homo sapiens)
Sequence (P00797 whole entry): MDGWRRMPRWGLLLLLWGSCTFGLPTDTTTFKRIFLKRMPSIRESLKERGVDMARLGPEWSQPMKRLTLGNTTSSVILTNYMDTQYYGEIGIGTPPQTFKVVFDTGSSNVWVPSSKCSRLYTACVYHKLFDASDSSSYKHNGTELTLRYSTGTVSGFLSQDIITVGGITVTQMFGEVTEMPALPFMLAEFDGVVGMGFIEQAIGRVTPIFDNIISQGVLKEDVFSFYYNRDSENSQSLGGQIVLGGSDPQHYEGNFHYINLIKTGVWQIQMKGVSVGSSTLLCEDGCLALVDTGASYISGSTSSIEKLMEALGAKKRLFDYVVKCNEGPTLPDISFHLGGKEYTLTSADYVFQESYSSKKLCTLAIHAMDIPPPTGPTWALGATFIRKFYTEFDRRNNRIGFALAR
Assay: Inhibition of recombinant human renin using Arg-Glu(EDANS)-Ile-His-Pro-Phe-His-Leu-Val-Ile-His-Thr-Lys(DABCYL)-Arg as substrate incubated for 10 mins prior to substrate addition measured after 90 mins by fluorimetric analysis
Observable: IC50 (nM)

INSERT INTO measurements (entry_smiles, unit_abbrev, relational_operator, value) VALUES
  ('CCOC[C@@H](CC(C)C)NC(=O)[C@@H]1CNC[C@H](N2CC(=O)N(c3ccccc3Cl)CC2(C)C)C1.O=C(O)/C=C/C(=O)O', 'nM', '=', 1.3),
  ('CC(C)CCNC(=O)[C@@H]1CNC[C@H](C(=O)N2CC(=O)N(c3ccccc3Cl)CC2(C)C)C1', 'nM', '>', 1000),
  ('CC(C)C[C@@H](NC(=O)[C@@H]1CNC[C@H](N2CC(=O)N(c3ccccc3Cl)CC2(C)C)C1)c1ccccc1', 'nM', '=', 2.1);

* * *

test: Clearance in Sprague-Dawley rat at 1 mg/kg, iv; type: ADME, organism-based; parameters: dose 1 mg/kg, route intravenous; settings: in vivo
Observable: clearance (mL/min/kg)

INSERT INTO assay_data (entry_smiles, observable, unit_abbrev, value) VALUES
  ('CCOC[C@@H](CC(C)C)NC(=O)[C@@H]1CNC[C@H](N2CC(=O)N(c3ccccc3Cl)CC2(C)C)C1.O=C(O)/C=C/C(=O)O', 'clearance', 'mL/min/kg', 31);

* * *

Parameter: pIC50. Scope: all listed entries.
molecular target: UniProtKB Q6DLS0; experiment: Inhibition of renin in cynomolgus monkey plasma after 60 mins by competitive radioimmunoassay
Sequence (Q6DLS0 whole entry): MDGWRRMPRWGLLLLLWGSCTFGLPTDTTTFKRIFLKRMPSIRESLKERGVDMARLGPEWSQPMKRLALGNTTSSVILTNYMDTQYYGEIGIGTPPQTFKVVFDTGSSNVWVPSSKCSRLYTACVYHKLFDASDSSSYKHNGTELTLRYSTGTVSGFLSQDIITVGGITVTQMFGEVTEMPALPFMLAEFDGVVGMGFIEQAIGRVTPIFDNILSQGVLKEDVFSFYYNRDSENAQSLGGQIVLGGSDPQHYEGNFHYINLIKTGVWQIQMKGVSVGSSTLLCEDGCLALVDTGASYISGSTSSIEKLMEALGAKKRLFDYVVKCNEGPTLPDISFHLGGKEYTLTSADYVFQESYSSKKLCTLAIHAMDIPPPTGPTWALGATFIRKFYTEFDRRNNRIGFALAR
pIC50: −log10 of the molar value.
Observable: pIC50

INSERT INTO results (molecule, relational_operator, value) VALUES
  ('CC[C@H](CC(C)C)NC(=O)[C@@H]1CNC[C@H](N2CC(=O)N(c3ccccc3Cl)CC2(C)C)C1', '=', 7.80),
  ('CC[C@@H](NC(=O)[C@@H]1CNC[C@H](N2CC(=O)N(c3ccccc3Cl)CC2(C)C)C1)c1ccccc1', '=', 8.18),
  ('CCOC[C@@H](CC(C)C)NC(=O)[C@@H]1CNC[C@H](N2CC(=O)N(c3ccccc3Cl)CC2(C)C)C1.O=C(O)/C=C/C(=O)O', '=', 8.85),
  ('CC(C)C[C@@H](NC(=O)[C@@H]1CNC[C@H](N2CC(=O)N(c3ccccc3Cl)CC2(C)C)C1)C(O)C(C)C (stereo in doubt; 13)', '=', 8.32),
  ('CC(C)CCNC(=O)[C@@H]1CNC[C@H](C(=O)N2CC(=O)N(c3ccccc3Cl)CC2(C)C)C1', '<', 6.00);
